// data source = patent US9328099B2

Target: JAK2 (Homo sapiens (Human))
Sequence (O60674 849-1124): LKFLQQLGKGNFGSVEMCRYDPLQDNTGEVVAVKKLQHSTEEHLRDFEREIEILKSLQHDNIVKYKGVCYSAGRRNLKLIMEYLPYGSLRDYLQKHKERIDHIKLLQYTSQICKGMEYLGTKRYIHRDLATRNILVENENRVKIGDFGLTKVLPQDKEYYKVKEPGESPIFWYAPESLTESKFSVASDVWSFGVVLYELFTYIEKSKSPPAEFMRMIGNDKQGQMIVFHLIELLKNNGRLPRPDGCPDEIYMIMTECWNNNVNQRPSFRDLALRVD
Assay: Jak Biochemical HTRF Assay, JAK2
Measurement Type: IC50

So, N#CCC1(n2cc(C(N)=O)c(Nc3ccnc(F)c3)n2)CCC(NC2CCOCC2)CC1 (stereo not drawn) [Example 40-38] ? Its IC50 was 103 nM

Input C[Si](C)(C)COC(=O)N1CCC(CC#N)(n2cc(C(N)=O)c(Nc3ccc(F)cc3)n2)CC1 [Example 30-10] . Output IC50: 745 nM

Summary for this compound, N#CCC1(n2cc(C(N)=O)c(Nc3ccc(F)cc3)n2)CCC(NC2CCOCC2)CC1 (stereo not drawn) [Example 40-65] : IC50 is 129 nM
